# target of assay: T1, human Protein S (human, UniProt P07225 42-676)
# T1 sequence: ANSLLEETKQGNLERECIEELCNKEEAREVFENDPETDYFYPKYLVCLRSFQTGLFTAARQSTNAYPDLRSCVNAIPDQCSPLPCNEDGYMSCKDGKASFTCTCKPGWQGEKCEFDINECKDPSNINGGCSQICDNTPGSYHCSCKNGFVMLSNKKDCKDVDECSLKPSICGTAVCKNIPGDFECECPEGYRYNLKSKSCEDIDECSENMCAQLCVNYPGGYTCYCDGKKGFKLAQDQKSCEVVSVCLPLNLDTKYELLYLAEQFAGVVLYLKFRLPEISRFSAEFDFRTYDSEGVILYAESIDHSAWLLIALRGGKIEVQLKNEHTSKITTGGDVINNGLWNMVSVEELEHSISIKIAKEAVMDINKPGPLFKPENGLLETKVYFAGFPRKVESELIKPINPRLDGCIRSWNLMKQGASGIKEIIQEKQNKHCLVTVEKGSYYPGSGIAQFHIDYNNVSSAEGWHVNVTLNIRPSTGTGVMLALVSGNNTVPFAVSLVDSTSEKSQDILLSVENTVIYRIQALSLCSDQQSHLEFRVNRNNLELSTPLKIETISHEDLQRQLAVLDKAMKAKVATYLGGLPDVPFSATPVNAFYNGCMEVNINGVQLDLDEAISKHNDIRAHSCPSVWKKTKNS
# experiment description: cell-based or functional assay
IC50 APC: recorded values
Answer format: numeric, nM implied, no suffix.

binder: Antibody 24 (antibody, V domains shown, Human variable region with rat Fc) VH: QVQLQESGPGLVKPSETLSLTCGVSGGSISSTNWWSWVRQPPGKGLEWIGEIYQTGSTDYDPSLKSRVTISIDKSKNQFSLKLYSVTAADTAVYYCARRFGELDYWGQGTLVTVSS VL: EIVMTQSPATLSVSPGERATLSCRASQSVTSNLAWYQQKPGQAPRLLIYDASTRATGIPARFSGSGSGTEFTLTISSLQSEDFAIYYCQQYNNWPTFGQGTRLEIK
unit text: nM
IC50 APC: 17.9
//
binder: Antibody 31 (antibody, V domains shown, Human variable region with rat Fc) VH: QVQLQESGPGLVKPSETLSLTCTVSGGSISGNYWSWIRQPPGKGLEWIGYIYYSGSTNYNPSLKSRVTISVDTSKNQFSLKLSSVTAADTAVYYCARDLDYFTWGAYSDWYFDLWGRGTLVTVSS VL: DIQMTQSPSSLSASVGDRVTITCRASQSISTFLNWYQQKPGKAPKLLIYATSSLRSGVPSRFSGSGSGTDFTLTISSLQPEDFAIYYCQQSYSTPRTFGQGTQVEIK
unit text: nM
IC50 APC: 99

Please turn your attention to the following entry.
Recorded IC50 APC (binder Antibody 20 (antibody, V domains shown, Human variable region with rat Fc) VH: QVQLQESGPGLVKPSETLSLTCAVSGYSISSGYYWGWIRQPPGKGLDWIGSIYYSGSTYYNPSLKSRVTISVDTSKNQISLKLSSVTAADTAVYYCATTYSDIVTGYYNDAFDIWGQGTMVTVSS VL: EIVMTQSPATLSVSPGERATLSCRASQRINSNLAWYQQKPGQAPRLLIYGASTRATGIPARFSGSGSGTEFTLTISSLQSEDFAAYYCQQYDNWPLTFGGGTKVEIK ): 12.8

Hello, the source for this data is patent US20230083243A1, in case you need it.
